# Test System: human PD-L1 (human, UniProt Q9NZQ7 19-290)
# Sequence (Q9NZQ7 19-290): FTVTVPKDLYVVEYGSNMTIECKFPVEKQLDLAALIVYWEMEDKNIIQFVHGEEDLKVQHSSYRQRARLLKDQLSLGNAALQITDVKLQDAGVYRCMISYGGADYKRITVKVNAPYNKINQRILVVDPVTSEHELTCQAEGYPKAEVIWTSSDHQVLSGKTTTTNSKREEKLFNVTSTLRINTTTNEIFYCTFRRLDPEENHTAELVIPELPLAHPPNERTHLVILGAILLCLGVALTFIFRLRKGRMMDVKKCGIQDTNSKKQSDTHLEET
# Test Details: cell-based or functional assay
Measured Parameter: EC50, Jurkat-NFAT-hPD1 reporter (nM)
Quick note: give the figure in nM, leave out the unit.

[
  {
    "Binder": "PR006247 (antibody, human IgG1, V domains shown, HCAb; human IgG1 Fc; no light chain) VH: QVQLVESGGGVVQPGMSLRLSCAASGFDFSSYGMYWVRQAPGKGQEWVASIRYTGTEKHYADSVKGRFTISRDNSKNTLYLEMNSLRVEDTAVYYCAKNRALFGVIPDASDIRGQGTMVTVSS",
    "Measured Parameter": "EC50, Jurkat-NFAT-hPD1 reporter",
    "Unit Of Measurement": "nM",
    "Endpoint Result": 0.15
  },
  {
    "Binder": "PR005878 (antibody, human IgG1, V domains shown, HCAb; human IgG1 Fc; no light chain) VH: QVQLVESGGGVVQPGMSLRLSCAASGFTFSSYGMYWVRQAPGKGQEWVASIRYTGTEKHYADSVKGRFTISRDNSKNTLYLEMNSLRVEDTAVYYCAKNRALFGVIPDDSDIRGQGTMVTVSS",
    "Measured Parameter": "EC50, Jurkat-NFAT-hPD1 reporter",
    "Unit Of Measurement": "nM",
    "Endpoint Result": 0.166
  },
  {
    "Binder": "PR000960 (antibody, human IgG1, V domains shown, Fully human heavy-chain-only antibody (HCAb): VH fused to human IgG1 Fc; no light chain) VH: QVQLVESGGGVVQPGMSLRLSCAASGFNFSNYGMYWVRQAPGKGQEWVAIIWYDGTKKHYADSVKGRFTISRDNSKNTLYLEMNSLRVEDTAVYYCAKNRAIFGVVPDASDIRGQGTMVTVSS",
    "Measured Parameter": "EC50, Jurkat-NFAT-hPD1 reporter",
    "Unit Of Measurement": "nM",
    "Endpoint Result": 0.31
  }
]

Ask: For the binder PR002082 (antibody, human IgG1, V domains shown, HCAb; PTM variant of PR000960 (N28T, N31S); human IgG1 Fc; no light chain) VH: QVQLVESGGGVVQPGMSLRLSCAASGFTFSSYGMYWVRQAPGKGQEWVAIIWYDGTKKHYADSVKGRFTISRDNSKNTLYLEMNSLRVEDTAVYYCAKNRAIFGVVPDASDIRGQGTMVTVSS , report EC50, Jurkat-NFAT-hPD1 reporter.
Result: 0.217

Values compiled from patent US20250215089A1.
